Provenance of the data: the MegaScale stability set (Tsuboyama et al. 2023)

B1: 2K2A (parent)
chain: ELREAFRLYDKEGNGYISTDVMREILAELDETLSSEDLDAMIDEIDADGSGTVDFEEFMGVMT

variants of: B1; test: folding stability dG (cDNA display proteolysis); higher = more stable; details: PBS, room temperature
Catalogue of folding stability dG readings, one per entry.
recorded.metric: folding stability dG (kcal/mol)

>>> df
    mutation_list  measurement
 0            L2W         2.66
 1           E12A         1.57
 2           V61K         1.32
 3           T19Q        0.688
 4            E4I         1.43
 5           V53A        0.162
 6           I17W        0.006
 7           M62Q        0.539
 8           A40V         1.69
 9           A40W          1.6
10           I42H       -0.459
11           D43Q         2.17
